Tested on: SH-SY5Y cells
Assay: AK (adenylate kinase) release ToxiLight cytotoxicity assay; also: reference of the scale not given here
Settings: PKIS2 primary screening
Reported AK values for a set of compounds

Field: example entries. Status: answers known.
| COMPOUND | SYSTEM NAME | AK |
| --- | --- | --- |
| FC(F)(F)c1ccccc1-c1cc(-c2c[nH]nc2-c2ccccn2)ccn1 [UNC10225184A] | SH-SY5Y cells | 124.66 |
| O=C(NCCNc1ccnc(Nc2ccc(F)cc2)n1)c1cc2ccccc2s1 | SH-SY5Y cells | 71.16 |
| FC(F)(F)c1cc(Br)cc(Nc2nccc(-c3cnn4ncccc34)n2)c1 [UNC10225191A] | SH-SY5Y cells | 83.14 |
| O=C(Nc1n[nH]c2cc(-c3ccco3)ccc12)C1CC1 | SH-SY5Y cells | 119.40 |
| Cc1ccc(NC(=O)c2ccc(Cl)cc2)cc1-c1ccc(C(=O)Nc2ccncc2)cc1 [UNC10224985A] | SH-SY5Y cells | 72.98 |

Fill in the recorded AK for this compound, with SH-SY5Y cells as test system: `Cc1cc(-c2ccnc(Nc3cccc(C#N)c3)n2)cc(C)c1O`
97.58

Fill in the recorded AK for this compound, with SH-SY5Y cells as test system: Fc1ccc(-c2ncn(CCCN3CCOCC3)c2-c2cccnc2)cc1 [UNC10225320A]
125.08

meta.source: paper PMC9851200
